Where do these numbers come from? They come from patent US10597405B2.

molecular target: KRasG12C (Homo sapiens, UniProt P01116, G12C); construct: biotin (biotinylated); assay: KRasG12C functional assay (HTRF nucleotide exchange / Raf RBD binding); details: GDP loaded biotinylated KRasG12C, samples incubated 4 hrs, FRET readout; single experiment or average of two or more
Sequence (P01116 1-188 isoform P01116-2 G12C): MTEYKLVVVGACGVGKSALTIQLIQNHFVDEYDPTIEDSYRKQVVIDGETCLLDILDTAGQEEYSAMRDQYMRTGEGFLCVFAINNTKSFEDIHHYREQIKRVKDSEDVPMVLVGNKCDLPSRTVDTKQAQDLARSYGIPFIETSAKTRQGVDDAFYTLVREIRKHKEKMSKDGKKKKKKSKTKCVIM
Experimental Endpoint: pIC50
For clarity, pIC50 is expressed as the negative log10 of concentration in mol/L.

Exam item: Looking for the measured pIC50 of C=CC(=O)N1CCN2c3c(cnc4c(F)c(-c5c(F)cccc5CO)c(Cl)cc34)N(C)C(=O)[C@H]2C1 (single isomer, unassigned) [Compound 34] , can you help?
Marked response: 5.01

Exam item: Looking for the measured pIC50 of C=CC(=O)N1CCN2c3c(cnc4c(F)c(-c5c(C)ccc6c5C(=O)NC6)c(Cl)cc34)OC[C@H]2C1 (single isomer, unassigned) [Compound 87] , can you help?
Marked response: 5.07

Exam item: Looking for the measured pIC50 of C=CC(=O)N1CCN2c3c(cnc4c(F)c(-c5c(O)cccc5F)c(Cl)cc34)N(C)C(=O)C2C1 (single isomer, unassigned) [Example 18] , can you help?
Marked response: 5.46

Exam item: Looking for the measured pIC50 of C=CC(=O)N1C[C@@H]2C(=O)Nc3cnc4c(F)c(-c5c(O)cccc5F)c(Cl)cc4c3N2C[C@H]1C (single isomer, unassigned) [Compound 31] , can you help?
Marked response: 8.40

Exam item: Looking for the measured pIC50 of C=CC(=O)N1CCN2c3c(cnc4cc(-c5c(C)ccc6[nH]cnc56)c(Cl)cc34)OC[C@H]2C1 (single isomer, unassigned) [Compound 66] , can you help?
Marked response: 6.18
